Origin of values: the supplement of paper PMC6555819

System: RARa:RXR (NR concentration 270 nM, RXRa partner concentration 90 nM)
Experiment: PBM binding z-score (relative to random genomic background probes); higher = stronger binding; sequences stand for … in GC…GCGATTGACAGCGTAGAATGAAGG
PBM binding z-score: recorded values

Example cases with answers are listed next.
> print(dat)
                      sequence.string                             system.tested  value.measured
1  ATCGAGAGGTCGAAGGTGAGTATACCCACCCGAA  RARa:RXR (NR concentration 270 nM, RXRa partner concentration 90 nM)            3.29
2  TCTTGTAGATCCAGCAGGTTAAGAAAGCCTGAGT  RARa:RXR (NR concentration 270 nM, RXRa partner concentration 90 nM)           0.259
3  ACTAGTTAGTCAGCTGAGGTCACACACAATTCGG  RARa:RXR (NR concentration 270 nM, RXRa partner concentration 90 nM)            5.01
4  CCTACTGGGGCAAGGTTACCATAACGCACAGCCA  RARa:RXR (NR concentration 270 nM, RXRa partner concentration 90 nM)           0.631
5  GCGTGTAGATCAAGGTTAAGAAAGACTAAGCTAA  RARa:RXR (NR concentration 270 nM, RXRa partner concentration 90 nM)            1.16

Attention now turns to another entry.
Asked: So what PBM binding z-score did CAAACAGGGTCAGCTAGGCCAGAGTAGGGACGGC get with RARa:RXR (NR concentration 270 nM, RXRa partner concentration 90 nM)?
Given back: 3.18
